Assayed system: UniProt Q9Z351
Assay: Effect on outward potassium currents in whole-cell patch clamp assay of HEK 293 cells expressing cloned mouse KCNQ2 channel at -40 mV
Readout name: EC50

Returns the measured EC50 for the input molecule. Input: `C[C@H](NC(=O)/C=C/c1ccccc1F)c1cccc(-c2cnccn2)c1`
370 nM

Proceed to `C[C@H](NC(=O)/C=C/c1ccccc1)c1cccc(-n2cccn2)c1`
1200 nM

And what about the molecule `C[C@H](NC(=O)/C=C/c1ccccc1F)c1cccc(-c2ccc(F)nc2)c1` ?
10 nM

###

Assayed system: Potassium voltage-gated channel subfamily KQT member 2 (Mus musculus, UniProt Q9Z351)
Sequence (Q9Z351 whole entry): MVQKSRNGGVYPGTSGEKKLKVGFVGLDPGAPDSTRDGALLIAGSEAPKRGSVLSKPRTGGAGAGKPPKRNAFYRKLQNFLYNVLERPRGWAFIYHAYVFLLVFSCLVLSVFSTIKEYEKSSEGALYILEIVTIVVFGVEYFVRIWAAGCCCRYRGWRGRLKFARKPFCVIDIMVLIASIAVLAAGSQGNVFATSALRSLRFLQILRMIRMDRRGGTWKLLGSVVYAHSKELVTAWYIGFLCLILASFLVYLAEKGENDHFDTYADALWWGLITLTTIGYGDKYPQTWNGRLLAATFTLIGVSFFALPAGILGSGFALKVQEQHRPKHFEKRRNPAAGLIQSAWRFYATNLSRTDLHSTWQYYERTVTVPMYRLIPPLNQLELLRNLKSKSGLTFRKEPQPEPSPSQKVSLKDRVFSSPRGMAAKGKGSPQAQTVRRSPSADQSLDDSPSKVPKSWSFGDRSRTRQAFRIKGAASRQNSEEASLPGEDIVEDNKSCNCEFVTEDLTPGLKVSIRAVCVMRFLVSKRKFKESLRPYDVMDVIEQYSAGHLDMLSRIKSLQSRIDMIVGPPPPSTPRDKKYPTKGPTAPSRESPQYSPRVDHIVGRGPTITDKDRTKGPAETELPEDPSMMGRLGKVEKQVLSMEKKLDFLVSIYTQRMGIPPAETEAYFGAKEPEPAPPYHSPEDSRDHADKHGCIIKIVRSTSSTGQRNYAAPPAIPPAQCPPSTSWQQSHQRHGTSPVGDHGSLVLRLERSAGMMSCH
Assay: Effect on outward potassium currents in whole-cell patch clamp assay of HEK 293 cells expressing cloned mouse KCNQ2 channel at -40 mV
pEC50: −log10 of the molar value.
Assign met to entries whose pEC50 meets or exceeds 6; assign not met to the rest.

Dear colleague, could you confirm whether `C[C@H](NC(=O)/C=C/c1ccccc1F)c1cccc(-n2cncn2)c1` has pEC50 at or above 6?
met

Further, for `C[C@H](NC(=O)/C=C/c1ccccc1)c1cccc(N2CCOCC2)c1` ?
not met

Now the compound `C[C@H](NC(=O)/C=C/c1ccccc1Cl)c1ccc2c(c1)OCO2`
met

Please answer likewise for `C[C@H](NC(=O)/C=C/c1ccccc1F)c1cccc(-n2cccn2)c1`
met

###

Provide the recorded E/Eref for the entries that follow.
Assayed system: Potassium voltage-gated channel subfamily KQT member 2 (Mus musculus)
Assay: Relative efficacy as ratio of maximal current amplitudes for compound and reference
Format: functional
Just the number, please, no unit after it.

Entry `C[C@H](NC(=O)/C=C/c1ccccc1F)c1cccc(-c2ccccn2)c1` : reported E/Eref = ?
1.8

# repeat for `C[C@H](NC(=O)/C=C/c1ccccc1F)c1ccc2c(c1)N(CC1CC1)CCO2`
1.83

Next entry: `C[C@H](NC(=O)/C=C/c1ccccc1F)c1cccc(-n2cccn2)c1`
1.6

What would you report for `C[C@H](NC(=O)/C=C/c1ccccc1F)c1cccc(-n2cncn2)c1` ?
1.2

Same again, this time with `CCOC(=O)Nc1ccc(NCc2ccc(F)cc2)cc1N`
1.6

Try `C[C@H](NC(=O)/C=C/c1ccccc1F)c1cccc(-c2cnccn2)c1` next.
1.57

What do we get for `C[C@H](NC(=O)/C=C/c1ccccc1Cl)c1ccc2c(c1)OCO2` ?
1.1

And then `C[C@H](NC(=O)/C=C/c1ccccc1)c1cccc(-n2cccn2)c1` , what is it?
1.9

Another molecule: `C[C@H](NC(=O)/C=C/c1ccccc1F)c1cccc(-c2ccc(F)nc2)c1`
0.85

Field entry: `C[C@H](NC(=O)/C=C/c1ccccc1)c1cccc(N2CCOCC2)c1`
1.4
